target: HIV-1 Env of isolate 98CN009 (subtype CRF07_BC) (HIV-1); assay: cell-based or functional assay
MEASUREMENT_NAME: IC50 (neutralization) (µg/mL)
The figure you give is taken to be in µg/mL; do not add the unit.

- BINDER: "PGT-125 (antibody, V domains shown) VH: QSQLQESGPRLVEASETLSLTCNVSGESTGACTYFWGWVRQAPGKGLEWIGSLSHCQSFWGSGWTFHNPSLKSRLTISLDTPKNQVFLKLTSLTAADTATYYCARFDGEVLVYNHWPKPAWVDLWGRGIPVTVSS VL: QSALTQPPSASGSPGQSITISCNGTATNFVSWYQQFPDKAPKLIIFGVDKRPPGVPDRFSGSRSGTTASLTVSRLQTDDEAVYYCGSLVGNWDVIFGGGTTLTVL"
  IC50 (neutralization) / µg/mL: 0.03

// moving on: another record for IC50 (neutralization)
Quick one: IC50 (neutralization) of PGT-126 (antibody, V domains shown) VH: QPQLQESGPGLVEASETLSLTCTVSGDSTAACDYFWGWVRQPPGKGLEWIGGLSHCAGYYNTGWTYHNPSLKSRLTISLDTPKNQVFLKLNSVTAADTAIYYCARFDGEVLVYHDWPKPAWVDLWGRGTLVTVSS VL: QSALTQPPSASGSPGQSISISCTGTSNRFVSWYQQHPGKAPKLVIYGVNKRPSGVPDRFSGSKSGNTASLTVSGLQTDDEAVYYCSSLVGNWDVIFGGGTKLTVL ? 0.019
